Below, each entry is listed alongside its reported IC50.
Tested on: human breast cancer cells MCF7
Assay: In vitro anti-tumor activity, MTT method
Format: cell-based
Conditions: Homo sapiens, MCF7, 96 h, MCF-7, MTT, 96-hour treatment
measured.attribute: IC50 (nM)

> print(dat)
                          compound.structure  limit.qualifier  experimental.value
 1  O=C(CCCCN1C(=O)C/C(=C\c2ccccc2)C1=O)N[C@H]1CCCC[C@@H]1O                >               20000
 2  O=C(CCCCCCN1C(=O)C/C(=C\c2ccc3ccccc3c2)C1=O)NO                =                 980
 3  COc1ccc(/C=C2\CC(=O)N(CCCCCCC(=O)NO)C2=O)cc1OC                =                 820
 4  CN(C)c1ccc(/C=C2\CC(=O)N(CCCCCCC(=O)NO)C2=O)cc1                =                1160
 5  CCOc1ccccc1/C=C1\CC(=O)N(CCCCCCC(=O)NO)C1=O                =                 510
 6  CC(C)c1ccc(/C=C2\CC(=O)N(CCCCCCC(=O)NO)C2=O)cc1                =                1660
 7  O=C(CCCCCCN1C(=O)C/C(=C\c2ccccc2)C1=O)NO                =                1430
 8  COc1cccc(/C=C2\CC(=O)N(CCCCCCC(=O)NO)C2=O)c1                =                 880
 9    O=C(CCCCN1C(=O)C/C(=C\c2ccccc2)C1=O)NO                >               20000
10  COc1cc(/C=C2\CC(=O)N(CCCCCCC(=O)NO)C2=O)cc(OC)c1OC                =                1270
11  O=C(CCCCCCN1C(=O)C/C(=C\c2cccc(F)c2)C1=O)NO                =                 920
12  O=C(CCCCCCN1C(=O)C/C(=C\c2ccccc2O)C1=O)NO                =                 800
13  COc1ccccc1/C=C1\CC(=O)N(CCCCCCC(=O)NO)C1=O                =                 350
14  COc1cc(Br)ccc1/C=C1\CC(=O)N(CCCCCCC(=O)NO)C1=O                =                 320
15  O=C(CCCCCCN1C(=O)C/C(=C\c2ccc(Cl)c(Cl)c2)C1=O)NO                =                 900
16  O=C(CCCCCCN1C(=O)C/C(=C\c2cccc(I)c2)C1=O)NO                =                1380
17  Nc1cc(F)ccc1NC(=O)CCCCCCN1C(=O)C/C(=C\c2ccccc2)C1=O                >               20000
18  N#Cc1ccccc1/C=C1\CC(=O)N(CCCCCCC(=O)NO)C1=O                =                 820

Origin of values: patent US20260124191A1
